Origin of measurements: paper PMC3461162

# Assay Info: Urine pharmacokinetics after single dose
# Format: in vivo, human
# Study Conditions: human, urine, oral, 40 mg, CLR, Amean (n) (range), single dose; 40 mg tablet

{"Smiles Data": "COc1ccc(-c2ccc3c(N4CCOC[C@@H]4C)nc(N4CCOC[C@@H]4C)nc3n2)cc1CO", "CL renal / mL/min": 3.68}

----------
# Assay Info: Urine pharmacokinetics after single dose
# Type: in vivo, human
# Study Conditions: human, urine, oral, 20 mg, CLR, Amean (n) (range), single dose; 20 mg solution
Outcome Measure: CL renal (mL/min)

{"Compound": "COc1ccc(-c2ccc3c(N4CCOC[C@@H]4C)nc(N4CCOC[C@@H]4C)nc3n2)cc1CO [AZD8055]", "Outcome Measure": "CL renal", "Reading Unit": "mL/min", "Readout Value": 1.29}
